assay: Single ascending dose and food-effect pharmacokinetics of naringin tablets in healthy humans; format: in vivo, human; conditions: male, human, plasma, po, 40 mg, naringin 40 mg p.o. single dose
attributeMeasured: half-life (h)
Numbers only; they are read as h.

Sample `C[C@@H]1O[C@@H](O[C@H]2[C@H](Oc3cc(O)c4c(c3)O[C@H](c3ccc(O)cc3)CC4=O)O[C@H](CO)[C@@H](O)[C@@H]2O)[C@H](O)[C@H](O)[C@H]1O` ; half-life observed: 3.07

* * *

experiment: Single ascending dose and food-effect pharmacokinetics of naringin tablets in healthy humans; format: in vivo, human; settings: female, human, plasma, po, 160 mg, naringin 160 mg p.o. single dose
attributeMeasured: AUC(0-inf) (ng·h/mL)
Dear colleague, please return just the value in ng·h/mL, with no unit written.

// sample C[C@@H]1O[C@@H](O[C@H]2[C@H](Oc3cc(O)c4c(c3)O[C@H](c3ccc(O)cc3)CC4=O)O[C@H](CO)[C@@H](O)[C@@H]2O)[C@H](O)[C@H](O)[C@H]1O [naringin, Naringin] , its AUC(0-inf) was 25.9

* * *

Experiment: Multiple-dose pharmacokinetics in rats
Format: in vivo, Sprague Dawley rats
Conditions: naringin 42 mg kg^-1 multiple dose, rat, male
Description: The optimal volume and activity in unit volume of enzyme solution [0.2 M acetic acid/water solution: 0.2 M ammonium acetate/water solution, 15:35 (v/v)] were determined through a pretest of the enzyme (rat plasma, 10 μl, 10 U μl^-1; dog plasma, 10 μl, 10 U μl^-1; human plasma, 20 μl, 20 U μl^-1; human urine, 10 μl, 10 U μl^-1). […] The compounds were detected by multiple reaction monitoring in the negative ion electrospray mode. […]
We begin with a simple list: items and their reported CavSS.
Write the number in ng/mL without appending the unit.

Record summary for `C[C@@H]1O[C@@H](O[C@H]2[C@H](Oc3cc(O)c4c(c3)O[C@H](c3ccc(O)cc3)CC4=O)O[C@H](CO)[C@@H](O)[C@@H]2O)[C@H](O)[C@H](O)[C@H]1O` : reported CavSS = 6.03

# context switch: different compound, same CavSS
CavSS recorded for this compound, `O=C1C[C@@H](c2ccc(O)cc2)Oc2cc(O)cc(O)c21` , is 178

* * *

Assay: Single-dose pharmacokinetics in dogs (plasma, UHPLC/MS/MS)
Type: in vivo, Beagle dogs
Settings: both sexes, Beagle, dog, plasma, po, 12.4 mg/kg
Source text: Sixty healthy adult Sprague Dawley rats (180-220 g, half male and female) were purchased from the Guangdong Medical Laboratory Animal Center (Guangzhou, Guangdong, China). Thirty Beagle dogs (10-14 kg, half male and female) were purchased from the […] […] The compounds were detected by multiple reaction monitoring in the negative ion electrospray mode. […] All pharmacokinetic and excretion parameters were expressed as mean ± standard deviation (SD). […]
attributeMeasured: AUC(0-t) (µg·h/mL)
Just the number please, in µg·h/mL, no unit attached.

# AUC(0-t) (molecule: `C[C@@H]1O[C@@H](O[C@H]2[C@H](Oc3cc(O)c4c(c3)O[C@H](c3ccc(O)cc3)CC4=O)O[C@H](CO)[C@@H](O)[C@@H]2O)[C@H](O)[C@H](O)[C@H]1O` ) is 0.124

* * *

assay: Single ascending dose and food-effect pharmacokinetics of naringin tablets in healthy humans; format: in vivo, human; conditions: both sexes, human, plasma, po, 320 mg, naringin 320 mg p.o. single dose, human; read-out: MRT0-t
attributeMeasured: MRT last (h)
Express it in h; write the number only.

Reported MRT last for `C[C@@H]1O[C@@H](O[C@H]2[C@H](Oc3cc(O)c4c(c3)O[C@H](c3ccc(O)cc3)CC4=O)O[C@H](CO)[C@@H](O)[C@@H]2O)[C@H](O)[C@H](O)[C@H]1O` was 3.17
